molecular target: UniProt:Q86W56; assay: PARG TFMU assay (4-(trifluoromethyl)umbelliferone substrate); assay type: biochemical; conditions: PARG 250 pM or 2 nM, 10-point dose response
measured.property: IC50

Below are worked cases with known answers.
>  <compound>
CCn1c(=O)c2cc(S(=O)(=O)N[C@@]3(C)CO[C@H]3C)ccc2n(CC)c1=O (single isomer, unassigned) [Example 17A]

>  <IC50>
50 to 500 nM

$$$$
>  <compound>
CCn1c(=O)c2cc(S(=O)(=O)N[C@@]3(C)C[C@H]3CCO)ccc2n(CC)c1=O (single isomer, unassigned) [Example 15A]

>  <IC50>
500 to 5000 nM

$$$$
>  <compound>
CN(CC(F)F)C(=O)N1CCN(c2cc(S(=O)(=O)NC3(CF)COC3)cc3c2cnn3-c2nnc(C(F)F)s2)CC1

>  <IC50>
< 50 nM

$$$$

Which IC50 is reported for this compound? `N#CC1(NS(=O)(=O)c2cc(Cl)c3cnn(-c4nnc(C(F)F)s4)c3c2)COC1`
500 to 5000 nM

====

Collected IC50 values appear next to each entry.
target: UniProt Q86W56; experiment: PARG TFMU assay (4-(trifluoromethyl)umbelliferone substrate); format: biochemical; details: PARG 250 pM or 2 nM, 10-point dose response

Lab note: need IC50 for `Cc1nnc(-n2ncc3c(N4CCN(C(=O)C(C)C)CC4)cc(S(=O)(=O)NC4(C)COC4)cc32)s1` on UniProt Q86W56, anyone have it?
< 50 nM

What value of IC50 on UniProt Q86W56 does C=C[C@@H]1C[C@]1(C#N)NS(=O)(=O)c1ccc2c(c1)c(=O)n(CC)c(=O)n2CC (single isomer, unassigned) have?
≥ 5000 nM

====

molecular target: PARG (Homo sapiens (Human), UniProt Q86W56); test: PARG TFMU assay (4-(trifluoromethyl)umbelliferone substrate); type: biochemical; conditions: PARG 250 pM or 2 nM, 10-point dose response
Sequence (Q86W56 whole entry): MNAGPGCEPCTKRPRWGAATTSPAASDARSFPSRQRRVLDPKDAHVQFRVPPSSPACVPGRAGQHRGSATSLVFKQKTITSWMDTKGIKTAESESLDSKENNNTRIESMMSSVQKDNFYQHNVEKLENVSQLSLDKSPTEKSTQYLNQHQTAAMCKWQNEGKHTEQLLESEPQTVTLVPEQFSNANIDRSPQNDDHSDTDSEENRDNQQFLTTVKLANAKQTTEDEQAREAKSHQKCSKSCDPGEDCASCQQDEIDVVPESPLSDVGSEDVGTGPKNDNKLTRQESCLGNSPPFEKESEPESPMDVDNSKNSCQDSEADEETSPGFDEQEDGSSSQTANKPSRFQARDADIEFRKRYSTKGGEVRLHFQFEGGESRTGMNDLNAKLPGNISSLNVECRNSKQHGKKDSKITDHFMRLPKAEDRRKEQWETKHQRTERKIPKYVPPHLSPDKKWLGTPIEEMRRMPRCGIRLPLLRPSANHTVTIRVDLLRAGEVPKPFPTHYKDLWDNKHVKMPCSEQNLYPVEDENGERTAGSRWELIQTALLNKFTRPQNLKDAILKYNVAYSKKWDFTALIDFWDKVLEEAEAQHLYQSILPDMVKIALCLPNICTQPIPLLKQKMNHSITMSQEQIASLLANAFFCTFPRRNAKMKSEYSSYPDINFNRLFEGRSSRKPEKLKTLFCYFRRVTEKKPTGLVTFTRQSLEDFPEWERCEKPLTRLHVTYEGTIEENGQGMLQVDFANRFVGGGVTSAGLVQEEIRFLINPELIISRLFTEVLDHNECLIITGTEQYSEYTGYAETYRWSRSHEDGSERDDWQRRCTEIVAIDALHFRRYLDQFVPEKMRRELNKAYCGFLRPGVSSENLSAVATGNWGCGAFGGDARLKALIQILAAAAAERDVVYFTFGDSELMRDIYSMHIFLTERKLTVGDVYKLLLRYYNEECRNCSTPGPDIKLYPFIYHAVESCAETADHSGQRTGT
Some compounds, each annotated with its measured IC50.

Record excerpt, results attached:
>  <compound>
Cc1ncc(Cn2c(=O)c3cc(S(=O)(=O)NC4(CF)COC4)ccc3n(Cc3sc(C)nc3C)c2=O)s1 [Example 28B]

>  <IC50>
< 50 nM

$$$$
>  <compound>
CC(C)S(=O)(=O)N1CCN(c2cc(S(=O)(=O)NC3(C)COC3)cc3c2cnn3-c2nnc(C(F)F)s2)CC1

>  <IC50>
< 50 nM

$$$$
>  <compound>
CCn1c(=O)c2cc(S(=O)(=O)NC3(C)CCC3)ccc2n(CC)c1=O

>  <IC50>
≥ 5000 nM

$$$$
>  <compound>
CC(C)C(=O)N1CCN(c2cc([S@TB20](=O)(=O)NC3(CF)COC3)cc3c2cnn3-c2nnc(C(F)F)s2)CC1

>  <IC50>
< 50 nM

$$$$
>  <compound>
CCn1c(=O)c2cc(S(=O)(=O)NC3(C)CSC3)ccc2n(CC)c1=O

>  <IC50>
500 to 5000 nM

$$$$
>  <compound>
CC(C)C(=O)N1CCN(c2cc(S(=O)(=O)NC3(C)COC3)cc3c2cnn3-c2nnc(C(F)F)s2)C[C@@H]1C (single isomer, unassigned)

>  <IC50>
< 50 nM

$$$$

Give the measured IC50 of `CC(C)C(=O)N1CCN(c2cc(S(=O)(=O)NC3(CF)COC3)cc3c2cnn3-c2nnc(C3CC3)s2)CC1` .
< 50 nM
